Listed next: entries and their corresponding protein stability index.
B1: PTPLAD1 (parent)
chain: YSFYMLTCIDMDWKVLTWLRYTLW

variants of: B1; test: protein stability index of a GFP-peptide fusion (GPS, HEK-293T) (PSI 1-6); higher = more stable; conditions: c terminus: a fixed tail appended;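 also: lentivirally expressed fusions sorted by FACS into six bins by GFP to DsRed ratio, PSI derived from sequencing read proportions per bin multiplied by bin number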
Answer as a number with no unit attached.

Guide cases for protein stability index, answers given:
M5N	2.21
D10Q	3.51
W13H	2.36
L16Q	2.4
Y21F	2.66
T7Q	3.88
T17Y	1.8
Y4S	1.77
L19N	3.55
Y4F	2.53

Param item = C8D ; retrieve measured protein stability index.
2

Param item = W18I ; retrieve measured protein stability index.
3.65

Param item = W24D ; retrieve measured protein stability index.
4.01

Param item = L16Y ; retrieve measured protein stability index.
1.59

Param item = Y21N ; retrieve measured protein stability index.
4.05
